# Test system: NCI-H1876 tumor spheroid viability
# assay procedure: Anticancer human tumor NCI-H1876 cell line growth inhibition;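 note: spheroids exposed to compounds for seven days before the viability read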
# condition notes: curve of first compound; second compound 0.000949 µM; spheroids with HUVEC and MSC
pIC50: −log10 of the molar value.
quantity: pIC50

[ask] Value wanted: pIC50 (NCI-H1876 tumor spheroid viability) of entry CNCc1ccc(-c2cc(-c3nc(-c4ccc(S(=O)(=O)C(C)C)cc4)cnc3N)on2)cc1 + COc1cc2c(cc1O)CCNC21CSC2c3c(OC(C)=O)c(C)c4c(c3C(COC1=O)N1C(O)C3Cc5cc(C)c(OC)c(O)c5C(C21)N3C)OCO4
[reply] > 8.02

[ask] // fetch NCI-H1876 tumor spheroid viability pIC50 for COc1cc(C)[nH]c(=O)c1CN1CCc2c(Cl)cc(C(OC)C3COC3)c(Cl)c2C1=O (stereo not given) + COc1cc2c(cc1O)CCNC21CSC2c3c(OC(C)=O)c(C)c4c(c3C(COC1=O)N1C(O)C3Cc5cc(C)c(OC)c(O)c5C(C21)N3C)OCO4
[reply] > 7.50

[ask] What measured pIC50 is associated with [2H]c1nc(C)nc([2H])c1-c1cc(NC[C@@H](C)c2cccc3c(C(=O)NC)ccnc23)ncn1 + COc1cc2c(cc1O)CCNC21CSC2c3c(OC(C)=O)c(C)c4c(c3C(COC1=O)N1C(O)C3Cc5cc(C)c(OC)c(O)c5C(C21)N3C)OCO4 on NCI-H1876 tumor spheroid viability?
[reply] > 7.50

[ask] Enter reported pIC50 observed with NCI-H1876 tumor spheroid viability for CC1COCCN1c1cc(-c2ccnn2C)c2ccnc(-c3ccn[nH]3)c2n1 (stereo not given) + COc1cc2c(cc1O)CCNC21CSC2c3c(OC(C)=O)c(C)c4c(c3C(COC1=O)N1C(O)C3Cc5cc(C)c(OC)c(O)c5C(C21)N3C)OCO4
[reply] > 7.50

[ask] Enter reported pIC50 observed with NCI-H1876 tumor spheroid viability for O=C(c1cc(Cc2n[nH]c(=O)c3ccccc23)ccc1F)N1CCN(C(=O)C2CC2)CC1 + COc1cc2c(cc1O)CCNC21CSC2c3c(OC(C)=O)c(C)c4c(c3C(COC1=O)N1C(O)C3Cc5cc(C)c(OC)c(O)c5C(C21)N3C)OCO4
[reply] > 7.02

[ask] API: value(readout= pIC50, system= NCI-H1876 tumor spheroid viability, query= Cn1ncnc1[C@H]1c2n[nH]c(=O)c3cc(F)cc(c23)N[C@@H]1c1ccc(F)cc1 + COc1cc2c(cc1O)CCNC21CSC2c3c(OC(C)=O)c(C)c4c(c3C(COC1=O)N1C(O)C3Cc5cc(C)c(OC)c(O)c5C(C21)N3C)OCO4 )
[reply] > 8.02

[ask] I'm curious: which pIC50 was measured for Cc1cc(C)c(CNC(=O)c2cc(-c3ccc(CN4CCOCC4)cc3)cc3c2cnn3C2CCCC2)c(=O)[nH]1 + COc1cc2c(cc1O)CCNC21CSC2c3c(OC(C)=O)c(C)c4c(c3C(COC1=O)N1C(O)C3Cc5cc(C)c(OC)c(O)c5C(C21)N3C)OCO4 tested on NCI-H1876 tumor spheroid viability?
[reply] > 7.50

[ask] Enter reported pIC50 observed with NCI-H1876 tumor spheroid viability for COc1ccc([C@@H](O)c2cc(-c3ncnc4cc(N5CCOCC5)ccc34)c(F)cc2Cl)nn1 + COc1cc2c(cc1O)CCNC21CSC2c3c(OC(C)=O)c(C)c4c(c3C(COC1=O)N1C(O)C3Cc5cc(C)c(OC)c(O)c5C(C21)N3C)OCO4
[reply] > 7.50

[ask] Observed pIC50 on NCI-H1876 tumor spheroid viability for CC(C)n1c(=O)n(C)c2cnc3cc(F)c(-c4ccc(OCCCN5CCCCC5)nc4)cc3c21 + COc1cc2c(cc1O)CCNC21CSC2c3c(OC(C)=O)c(C)c4c(c3C(COC1=O)N1C(O)C3Cc5cc(C)c(OC)c(O)c5C(C21)N3C)OCO4 , please.
[reply] > 7.50

[ask] Can you look up pIC50 on NCI-H1876 tumor spheroid viability for Cc1sc2c(c1C)C(c1ccc(Cl)cc1)=NC(CC(=O)Nc1ccc(O)cc1)c1nnc(C)n1-2 (stereo not given) + COc1cc2c(cc1O)CCNC21CSC2c3c(OC(C)=O)c(C)c4c(c3C(COC1=O)N1C(O)C3Cc5cc(C)c(OC)c(O)c5C(C21)N3C)OCO4 ?
[reply] > 8.02
